Each recorded value in this set is attributed to ChEMBL document CHEMBL1770133.

- assay_target: Glucose-dependent insulinotropic receptor (Mus musculus)
- Sequence (Q7TQP3 whole entry): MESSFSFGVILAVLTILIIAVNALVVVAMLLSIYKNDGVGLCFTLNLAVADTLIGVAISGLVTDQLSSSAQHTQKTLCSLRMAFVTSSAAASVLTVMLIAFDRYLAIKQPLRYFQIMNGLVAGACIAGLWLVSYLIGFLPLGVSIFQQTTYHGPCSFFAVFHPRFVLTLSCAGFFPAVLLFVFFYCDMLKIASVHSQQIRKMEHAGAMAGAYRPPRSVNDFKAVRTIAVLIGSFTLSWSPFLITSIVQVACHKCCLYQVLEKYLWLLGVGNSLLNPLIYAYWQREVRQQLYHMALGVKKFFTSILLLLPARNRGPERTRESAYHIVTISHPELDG
- experiment_description: Agonist activity at mouse GPR119 expressed in CHO cells co-expressing Galpha15 assessed as increase of intracellular cAMP accumulation after 60 mins by HTRF assay
pEC50: −log10 of the molar value.
reported_endpoint: pEC50

These solved cases illustrate the format of a correct answer.
INSERT INTO assay_data (compound, observed_measurement) VALUES
  ('CC(C)(C)OC(=O)N1CCC(C2CCN(c3cc(C#N)ncn3)CC2)CC1', 7.51),
  ('Clc1cnc(N2CCC([C@H]3C[C@H]3CCOc3ccc(-n4ccnn4)cc3)CC2)nc1', 8.22),
  ('CC(C)(C)OC(=O)N1CCC(C2CCN(c3ncccn3)CC2)CC1', 6.28);

(1) O=C(NC1CC1)c1ccc(OCCC2CC2C2CCN(c3ncc(Cl)cn3)CC2)cc1F (racemic)
(2) CSc1ccc(N2CCC(C3CCN(C(=O)OC(C)(C)C)CC3)CC2)cc1
Given the listed items, does 1 or 2 have the lesser reported pEC50? Answer by stating the label of the chosen item.
2
(2: 6.29, 1: 9.40)

(1) C[S+]([O-])c1ccc(N2CCC(C3CCN(C(=O)OC(C)(C)C)CC3)CC2)cc1 (configuration not stated)
(2) O=C(NC1CC1)c1ccc(OCC2CC2CC2CCN(c3ncc(Cl)cn3)CC2)cc1F (racemic; 56)
For the two items 1 and 2 , which reports the higher pEC50 value? Answer by stating the label of the chosen item.
2
